Target: T1, S15-extra cellular domain (ECD) monomer (human, UniProt Q6ZMC9 20-263)
T1 construct: also called S15 monomer protein
T1 sequence: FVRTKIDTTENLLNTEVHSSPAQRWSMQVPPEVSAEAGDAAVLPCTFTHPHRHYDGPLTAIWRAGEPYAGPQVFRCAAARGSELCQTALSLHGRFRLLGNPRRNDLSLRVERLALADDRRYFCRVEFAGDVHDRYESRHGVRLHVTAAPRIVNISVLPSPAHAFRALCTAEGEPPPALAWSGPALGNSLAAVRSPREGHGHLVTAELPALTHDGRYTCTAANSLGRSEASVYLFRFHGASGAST
Experiment: BLI (Octet RED96), mAb on anti-human Fc sensors, S15-ECD monomer in solution, global fit
Method: Optimized KD experiments were performed on a ForteBio Octet RED96 instrument using anti-human Fc capture (AHC, 18-5060; ForteBio) sensors. Assay buffer was PBS containing 0.05% Tween-20 and regeneration buffer was 10 mM glycine (pH 1.5). First the antibodies were loaded at 1 μg/mL for 600 seconds. This was followed by a 60 second baseline step, a 300 second association step in S15-extra cellular domain (ECD) monomer, and finally a 1200 second dissociation step. […]
Assign kon to each entry below.
Numbers only; they are read as M⁻¹ s⁻¹.

q: Indicate the recorded kon value for this binder: 77A (antibody, V domains shown, Mouse anti-human Siglec-15 mAb; also called NC77) VH: EVQLQQSGAELVRPGASVKLSCTASGFNIKDDYMHWVKQRPEQGLEWIGCIDPENGDTEYASKFQGKATITADTSSNTVYLQLSSLTSEDTAVYYCTTYVGFGYWGQGTLVTVSA VL: DVLMTQSPLSLPVSLGDQASISCRSSQNIVHSNGNTYLEWYLKKPGQSPKLLIYKVSNRFSGVPDRFSGSGSGTDFTLKISRVEAEDLGMYYCFQGSHVPLTFGAGTKLELK
a: 72000

q: Indicate the recorded kon value for this binder: 6F8 (antibody, V domains shown, Mouse anti-human Siglec-15 mAb) VH: QVQLKQSGPELVRPGASVKISCEASGYTFTDYYVNWVKQRPGRGLEWIGKIGPGSVSIYYNEKFKDKATLTADKSSSTAYMQLSGLTSEDSAVYFCASYYYGFAYWGQGTLVTVSA VL: DIVMTQAAPSVPVTPGESVSISCRSSKSLLHSNGNTYLYWFLQRPGQSPQLLIYRMSNLASGVPDRFGGSGSGTAFTLRISRVEAEDVGVYYCMQHLEYPYTFGGGTKLEIKR
a: 304000

q: Indicate the recorded kon value for this binder: 10G9 (antibody, V domains shown, Mouse anti-human Siglec-15 mAb) VH: EVQLLETGGGLVQPGGSRGLSCEGSGFTFSDFWMSWVRQTPGKTLEWIGDINSDGSAVNYAPSIKDQFTIFRDNDKRTLHLQMINVRSEDTATYFCVRYDDYGYFDVWGTGTTVTVSS VL: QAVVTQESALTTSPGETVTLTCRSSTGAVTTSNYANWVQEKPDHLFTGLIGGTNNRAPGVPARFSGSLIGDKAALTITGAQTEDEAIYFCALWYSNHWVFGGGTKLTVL
a: 277000

q: Indicate the recorded kon value for this binder: 8C8 (antibody, V domains shown, Mouse anti-human Siglec-15 mAb) VH: QVQLKQSGAELVKPGASVKISCKASGYTFTDYYVNWVKQRPGQGLEWIGKIGPESVSIYYSEKFKAKATLTADKSSSTAYMQLSSLTSEDSAVYFCASYYYGFAYWGQGTLVTVSA VL: DIVMTQAAPSVPVTPGESVSISCRSSKSLLHSNGNTYLYWFLQRPGQSPQLLIYRMSNLASGVPDRFGGSGSGTAFTLRISRVEAEDVGVYYCMQHLEYPYTFGGGTKLEIK
a: 292000

q: Indicate the recorded kon value for this binder: 83B (antibody, V domains shown, Mouse anti-human Siglec-15 mAb; also called NC83) VH: EVQLQQSGPELVKPGASVKMSCKASGYTFTDYNMHWVKQSHGKSLEWIGYINPNNGGTSYNQKFKDKATLTVNKSSSTAFMELRSLASEDSAVYYCARSDWEDCWGQGTTLTVSS VL: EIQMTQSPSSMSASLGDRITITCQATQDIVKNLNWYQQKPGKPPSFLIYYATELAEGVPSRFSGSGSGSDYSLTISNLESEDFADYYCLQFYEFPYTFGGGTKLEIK
a: 353000
